Test system: A549/ATCC NSCLC
assay_overview: NCI-60 one-dose screen, 48 h (100 = growth as untreated, 0 = no growth, -100 = all killed)
condition_label: 10 µM unless noted
The panel holds about 83,000 compounds, 20% with a hit somewhere; the sample as a whole holds those more often.
Overview of reported growth across a group of molecules:

molecule	unit_symbol	growth
Cc1cc(NCCCCNc2ccnc3cc(Cl)ccc23)nc(Nc2ccc(C(=O)N3CCCCC3)cc2)n1	%	13.1
CC(=O)[C@@H]1CC[C@]2(COS(=O)(=O)c3ccc(C)cc3)CC[C@]3(C)[C@H](CC[C@@H]4[C@@]5(C)CCCNC(C)(C)[C@@H]5CC[C@]43C)[C@@H]12	%	70.5
Cn1c(=O)c2[nH]c(NN)nc2n(C)c1=O	%	106
CCN(CC)CCCNc1ccc(Nc2ccc(OC)cc2)cc1	%	92.1
COc1ccc(CNC(=O)C(O)C(Cc2ccccc2)NC(=O)c2[nH]c3ccccc3c(=O)c2C)cc1OC (stereo not given)	%	103
O=c1c2c3c(sc2nc(N/N=C/c2ccc(Br)cc2)n1Cc1ccccc1)CCCC3	%	74.8
CCOc1ccccc1-c1cc(-c2cccs2)c(C#N)c(=O)[nH]1	%	91.2
Nc1cc2c3c(cccc3c1)C(=O)N(CCN1CCCC1)C2=O	%	14.8
CC(=O)c1nc(Nc2ccc(C)cc2)sc1C	%	96.7
CCOC(=O)/C=C/c1cc2cc(-c3csc4ccccc34)ccc2[nH]1	%	55.5
NS(=O)(=O)c1cnccc1Oc1cccc2cccnc12	%	94.6
COC(=O)[C@H](CSC)N(C)C(=O)[C@@H]1CSSC[C@@H](NC(=O)c2nc3ccccc3cc2O)C(=O)NCC(=O)N1C	%	59.4
Cc1cc(Cl)ccc1Nc1nc(C(F)(F)F)ccc1C(=O)N/N=C/c1ccc(N(C)C)cc1	%	18.2
O=C1Nc2ccccc2/C1=C/c1cn(C(=O)c2c(Cl)cccc2Cl)c2ccccc12	%	36.7
CC1CC2Oc3ccc(Cl)cc3C(=O)N2O1 (stereo not given)	%	98
C[C@H](NC(=O)[C@@H]1CSSC[C@@H](NC(=O)c2nc3ccccc3cc2O)C(=O)NCC(=O)N1C)c1ccccc1	%	42.9
CNS(=O)(=O)c1n[nH]nc1-c1cc(C(C)(C)C)c(O)c(C(C)(C)C)c1	%	89.5
O=C(Cc1ccc(F)c(F)c1)Nc1cc(C2(C(F)(F)F)CC2)nn1Cc1ccccc1	%	9.17
O=C(c1ccccc1)c1c(/C=C/c2ccc(Cl)cc2)nc2ccccc2c1/C=C/c1cccs1	%	92.9
O=C(O)CN1C(=O)CCC1=O	%	98.4
